Biological target: T1, 481-660
T1 construct: Expressed in E. coli
T1 GST fusion polypeptide: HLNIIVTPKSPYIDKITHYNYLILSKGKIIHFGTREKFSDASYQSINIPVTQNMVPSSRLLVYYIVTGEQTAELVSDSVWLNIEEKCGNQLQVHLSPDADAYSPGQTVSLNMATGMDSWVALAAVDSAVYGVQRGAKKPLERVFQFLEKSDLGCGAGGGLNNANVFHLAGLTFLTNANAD
Test: Western blot of E. coli lysates expressing GST-fused C5 beta-chain fragments
Endpoint: binding result

>>> obs_value("CFA0599 (antibody, V domains shown, Chimeric, rabbit V regions; also called CFA0599-F760G4) VH: QSVEESGGRLVTPGTPLTLTCTVSGLSLSDNTMTWVRQAPGKGLEWIGIISFGGDAYYASWAKGRFPISKTSTTVDLRITSPTTEDTATYFCARVGAGNIFWYFDLWGPGTLVTVSS VL: AYDMTQTPASVEVSVGGTVTIKCQASESIYSALAWYQQKPGQPPKLLIYSASTLASGVPSRFKGSGSGTEYTLTISDLECADAATYYCQQYYSSTNVHNSFGGGTTVVVE")
"no binding"
>>> obs_value("CFA0672 (antibody, V domains shown, Chimeric, rabbit V regions; also called CFA0672-F760G4) VH: QSVEESGGRLVTPGTPLTLTCTASGFSLSGNAINWVRQAPGKGLEWIGCIYTGSDTTYYATWAKGRFTISKTSTTVDLKIASPTTEDTATYFCARGSGLWGPGTLVTVSS VL: DVVMTQTPASVSAPVGGTVTIKCQASQNIYSLLAWYQQKPGQPPKLLIYHTSDLASGVPSRFRGSGSGTEFTLTISDLECADAATYYCQCTAYGSSDVGGTFGGGTTVVVE")
"no binding"
>>> obs_value("CFA0305 (antibody, V domains shown, Chimeric, rabbit V regions; also called CFA0305-F760G4) VH: QSLEESGGDLVKPGASLAVTCTASGFSSSSSYYMCWVRQAPGKGLEWIGCIYTGSGATYYASWAKGRFTISKTSSTTVTLQMTSLTVADTATYFCASDGGYVTPTHAMYLWGPGTLVTVSS VL: DVVMTQTPASVSAAVGGTVTIKCQASQNIGSDLAWYQQKPGQPPRLLIYGASKLASGVSSRFSGSGSGKEFTLTISDLECADAVTYYCQCTFVGSSYGNAFGGGTEVVVK")
"no binding"

Values compiled from patent US20180002415A1.
